Test system: HS 578T breast
Assay: NCI-60 one-dose screen, 48 h (100 = growth as untreated, 0 = no growth, -100 = all killed)
Settings: 10 µM unless noted
The panel holds about 83,000 compounds, 20% with a hit somewhere; the sample as a whole holds those more often.
Each record here notes measured growth.
Numbers only; they are read as %.

Check out these entries, answers already filled in.
Fc1ccc(N2COOC3(OOC2)C2CC4CC(C2)CC3C4)cc1 | 109
CC(=O)O[C@H]1CC[C@]2(C)[C@H]3CC[C@]4(C)[C@@H](OC(C)=O)CC[C@H]4[C@@H]3[C@@H](C)[C@]2(O)C1 | 110

Read the next record carefully.
Query block: Need growth of `CC[C@H](C)[C@H](NC(=O)c1cccn1C)C(=O)N(C)[C@H](C[C@@H](OC(C)=O)c1nc(C(=O)N[C@@H](Cc2ccccc2)C[C@H](C)C(=O)OC)cs1)C(C)C` , thanks.
Result block: 27

###

System: EKVX NSCLC
Test: NCI-60 one-dose screen, 48 h (100 = growth as untreated, 0 = no growth, -100 = all killed)
Settings: 10 µM unless noted
About 83,000 compounds went through this panel and 20% of them were active in at least one assay; those are over-represented in the sample as a whole.
The molecules listed here are annotated with their growth.
Record the value in %, omitting the unit from your answer.

The examples below pair each entry with its known result.
CN[C@@]1(c2ccccc2Cl)CCCC[C@@H]1NCC1CCCO1 (stereo partly drawn) | 99.2
O=C(O)C1C(C(=O)O)C2(Cl)C(Cl)=C(Cl)C1(Cl)C2(Cl)Cl.[Hg] (stereo not drawn) | 102

// switching to the query molecule
Query block: Item under review: `CC[C@H](C)[C@H](NC(=O)c1ccccn1)C(=O)N(C)[C@H](C[C@@H](OC(C)=O)c1nc(C(=O)N[C@@H](Cc2ccccc2)C[C@H](C)C(=O)OC)cs1)C(C)C` . Reported growth?
Result block: 30.3

###

Test system: UACC-257 melanoma
Assay: NCI-60 one-dose screen, 48 h (100 = growth as untreated, 0 = no growth, -100 = all killed)
Conditions: 10 µM unless noted
About 83,000 compounds went through this panel and 20% of them were active in at least one assay; those are over-represented in the sample as a whole.
Entries and their growth values follow.
Express your answer in %, writing the number without its unit.

Nc1ccc2c(c1)oc1ccccc12 | 92.6
CC(=O)OCc1cc[c]([Hg][Cl])o1 | 53.5
C=CC1=C[C@@H]2[C@@H]3O[C@]4(CC[C@H](O4)[C@@H](C)C[C@@H](O)C3=O)C[C@H](O)C3=NCC[C@@]32CC1 | -31.5

Query block: Fill blank: measured growth of the molecule C=CC12CCN(CC1)C(C(O)c1ccnc3ccc(OC)cc13)C2 (stereo not given) is ____.
Result block: 52.4

Query block: Please do the same for O=C1CNC(c2ccccc2)c2cc(Cl)ccc2N1 (stereo not given) as well.
Result block: 94.9

###

# key: entry, value: growth
Tested on: DU-145 prostate
Test: NCI-60 one-dose screen, 48 h (100 = growth as untreated, 0 = no growth, -100 = all killed)
Conditions: 10 µM unless noted
Compounds without any hit were thinned out: in the full panel of roughly 83,000, 20% have a hit.
Hi! Could you send only the number? It should be in %, unit omitted.

Recorded growth, per entry:
COC(=O)[C@@H](C)C[C@H](Cc1ccccc1)NC(=O)c1cccc([C@@H](C[C@H](C(C)C)N(C)C(=O)[C@@H](NC(=O)[C@H]2CCCCN2C)C(C)C)OC(C)=O)n1 | 10.5
COC(=O)[C@@H](C)C[C@H](Cc1ccccc1)NC(=O)c1csc([C@@H](C[C@H](C(C)C)N(C)C(=O)[C@@H](NC(=O)[C@H]2CCCCN2C)C(C)C)OC(C)=O)n1 | 10.3

Pending molecule:
Query block: Bench note: what growth did `CC[C@]12C=CCN3CC[C@]4(C(=C(C(=O)OC)C1)Nc1cc(OC)c(OC(C)=O)cc14)[C@@H]32` show?
Result block: 24.3

Source of measurements: PubChem BioAssay (NCI)
